All values here come from ChEMBL document CHEMBL5126597.

test: Stabilization of PPARgamma LBD (unknown origin)/FITC-labeled PGC-1alpha (unknown origin) protein-protein interaction assessed as dissociation constant by fluorescence anisotropy assay; set-up: species or system Homo sapiens
observation type: Kd (nM)

P: O=C(O)c1ccc(-c2nn(C(=O)c3c(Cl)cccc3C(F)(F)F)c3ccccc23)cc1
Q: CN(CCOc1ccc(CC2SC(=O)NC2=O)cc1)c1ccccn1 (configuration not stated)
Could you tell me which of P and Q has the lower Kd reading? Mark your answer with the label of the selected entry.
Q
